- Test system: INS-1E rat beta cells, no cytokines, CellTiter-Glo ATP, 48 h
- Assay remarks: cytokine-free beta-cell viability effect – INS-1E rat cells, ATP luminescence, cherry pick, counter-screen for beta-cell apoptosis protection project, dose response (AID 463229)
The source made the active and inactive calls.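 How the source made its calls: active means compounds raising the signal whose fitted half-maximal concentration is at or below their top tested dose (cut at about 25 µM in these data); inconclusive means flat fit at 30 to 70% activity, or a poor fit; inactive means the rest.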
Outcome field: choose from class 1 = active, class 0 = inactive

Example results:
COC1=CC(=O)[C@]2(C=C1OC)OC[C@@H]1Oc3c(ccc4c3C=CC(C)(C)O4)C(=O)[C@@H]12: class 1
O=C(Nc1ccc(OC(F)F)cc1)Nc1cccc(C(F)(F)F)c1: class 1
N=c1c2c(ncn1CCCO)Oc1ccc3ccccc3c1C2c1ccccc1 (stereo not given): class 0
Cc1c(/C=N/Nc2nc3ccccc3[nH]2)c2ccccc2n1C: class 1
CC(CC(=O)N1CCN(c2cccc(Cl)c2)CC1)S(=O)(=O)c1ccc2c(c1)NC(=O)CO2 (stereo not given): class 1
C=C(C)C(=O)O[C@H]1C/C(C)=C\C(=O)/C=C(\C)[C@H](O)[C@@H]2OC(=O)C(=C)[C@@H]21: class 1

In this assay, the call recorded for `FC(F)(F)c1nc2ccccc2n2c(-c3ccc(Cl)cc3)nnc12` was what?
class 1

In this assay, the call recorded for CCC1CCCCN1C(=O)c1cc(COc2ccc3ncccc3c2)on1 (stereo not given) was what?
class 1

In this assay, the call recorded for `O=C(CNc1ccccc1)N/N=C/c1c(O)ccc2ccccc12` was what?
class 1

In this assay, the call recorded for `[O-]c1ccccc1-[n+]1c(-c2ccccc2)cc(-c2ccccc2)cc1-c1ccccc1` was what?
class 1

====

Measured AC50 of individual entries
- System: INS-1E rat beta cells, no cytokines, CellTiter-Glo ATP, 48 h
- Assay remarks: cytokine-free beta-cell viability effect – INS-1E rat cells, ATP luminescence, cherry pick, counter-screen for beta-cell apoptosis protection project, dose response (AID 463229)

Examples from the recorded data:
Oc1c(C(Nc2ccccn2)c2cccnc2)cc(Cl)c2cccnc12 (stereo not given): 7.48 µM
CN(C)CCCn1cnc2c(c1=N)C(c1ccccc1)c1ccc3ccccc3c1O2 (stereo not given): 7.08 µM
CCc1c(C2(O)CCCCC2)[nH]c2cc(C(F)(F)F)ccc12: 11 µM
CCOC(=O)N1CCN(S(=O)(=O)c2ccc(C(=O)NNc3nc4cc(C)cc(C)c4s3)cc2)CC1: 6.01 µM
CCC(=O)NC(c1ccc(C)cc1)c1cc(Cl)c2cccnc2c1O (stereo not given): 7.97 µM

Bench note: what AC50 did CC(=O)C1=NN(c2ccccc2)C(c2cccs2)N1c1ccc(N(C)C)cc1 (stereo not given) show?
3.56 µM

Bench note: what AC50 did `Cc1cc(/C=C2/SC(=S)N(c3ccc([N+](=O)[O-])cc3)C2=O)c(C)n1-c1cccnc1` show?
0.912 µM

Bench note: what AC50 did O=C(N/N=C/c1ccccc1O)C1CC(=O)N(c2ccc(Cl)cc2)C1 (stereo not given) show?
17.7 µM

Bench note: what AC50 did `COc1cccc(N=Nc2ccc(O)c3ncccc23)c1` show?
6.47 µM

Bench note: what AC50 did `O=[N+]([O-])c1ccc(N2CCN(C(=S)NCc3ccc(Cl)cc3)CC2)cc1` show?
10.3 µM

Bench note: what AC50 did `COc1ccc(-c2ccc3c(c2)S(=O)(=O)c2cccc(C(=O)NCCOc4ccccc4Cl)c2C3=O)cc1OC` show?
3.5 µM

Bench note: what AC50 did COc1cc([N+](=O)[O-])ccc1NC(=O)CC1SC(=Nc2ccc(F)cc2)N(CCC2=CCCCC2)C1=O (stereo not given) show?
4.23 µM

Bench note: what AC50 did `O=C(NCCc1cn2ccccc2n1)c1cc(COc2ccc3ncccc3c2)on1` show?
8.04 µM

Bench note: what AC50 did `O=C(Nc1cccc(NC(=O)c2cc([N+](=O)[O-])ccc2Cl)n1)c1cc([N+](=O)[O-])ccc1Cl` show?
14.8 µM

Bench note: what AC50 did `Cc1ccc(NC(=O)Nc2cccc([N+](=O)[O-])c2)cc1F` show?
8.06 µM

Bench note: what AC50 did `O=C(NCc1cccnc1)c1ccc(NC(=O)c2cccc([N+](=O)[O-])c2)cc1` show?
0.205 µM
